assay: NIH3T3 cell viability loss – cherry-pick, single point, cytotoxicity control for T. cruzi proliferation inhibitor project, confirmation (AID 651742); settings: NIH/3T3 viability, CellTiter-Glo ATP luminescence, 90 h; at 8.35 µM;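 note: 0% = median of neutral control wells and 100% = median of positive control wells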
Hit rate of the full screen: of about 5,600 compounds, about 780 (14%) were called active. Another 3% or so got no clear call; they are omitted.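 Rule for the calls: active = mean signal decrease across replicates above about 35% based on untreated-well scatter, with enough replicates individually passing (limit read from the data); inconclusive = no rule stated though some were filed; inactive = the rest.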 These entries were drawn from the full list.
Please reply with one of these outcomes: Yes for active, No for inactive

Examples with answers:
C[C@H](CO)N1C[C@H](C)[C@@H](CN(C)C(=O)C2CCCCC2)Oc2cc(-c3ccccc3)ccc2S1(=O)=O: No
O=C(C[C@@H]1C[C@@H]2c3cc(NC(=O)c4ccc5c(c4)OCO5)ccc3O[C@@H]2[C@@H](CO)O1)NCc1ccc(Cl)cc1: No
COc1ccccc1-c1ccc2c(c1)O[C@@H](CN(C)C)[C@H](C)CN([C@H](C)CO)S2(=O)=O: No

Problem: For C[C@H]1CN([C@@H](C)CO)S(=O)(=O)c2ccc(C3=CCCC3)cc2O[C@@H]1CN(C)Cc1ccccc1 , which call appears in the assay record?
Solution: Yes

----------
assay: NIH3T3 cell viability loss – cherry-pick, single point, cytotoxicity control for T. cruzi proliferation inhibitor project, confirmation (AID 651742); conditions: NIH/3T3 viability, CellTiter-Glo ATP luminescence, 90 h; at 8.35 µM;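 note: 0% = median of neutral control wells and 100% = median of positive control wells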
In all, about 5,600 compounds went through this assay and about 780 (14%) were called active. Not shown: some 3% with an inconclusive outcome.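 How the source made its calls: active means mean signal decrease across replicates above about 35% based on untreated-well scatter, with enough replicates individually passing (limit read from the data); inconclusive means no rule stated though some were filed; inactive means the rest.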 Only a sample is shown.
Respond with a class label; see active, inactive

CCC(=O)N1CCCCN2[C@H](C1)[C@@H](c1ccc(-c3ccc(F)cc3)cc1)[C@@H]2CO: inactive
C[C@@H]1CN([C@H](C)CO)C(=O)c2cc(NS(=O)(=O)c3cccs3)ccc2O[C@@H](C)CCCCO[C@@H]1CN(C)S(=O)(=O)c1ccc(Cl)cc1: inactive
Cc1ccc(S(=O)(=O)Nc2ccc3c(c2)C(=O)N([C@@H](C)CO)C[C@@H](C)[C@H](CN(C)C(=O)Nc2cccc4ccccc24)OCCCC[C@H](C)O3)cc1: inactive
CCN(C[C@H]1[C@H](c2ccccc2)[C@H](CO)N1C(=O)C1CC1)C(=O)NC1CCCC1: inactive
Cc1noc(C)c1S(=O)(=O)Nc1ccc2c(c1)C(=O)N([C@@H](C)CO)C[C@@H](C)[C@H](CN(C)S(=O)(=O)c1ccc(Cl)cc1)OCCCC[C@H](C)O2: inactive

Problem: # fetch the recorded call for O=C(C1CCC1)N1CCCCN2[C@H](CO)[C@H](c3ccc(-c4cccc(F)c4)cc3)[C@@H]2C1 here
Solution: inactive

Problem: What call does the record list for O=C(Nc1ccc(-c2ccccc2)cc1)[C@H]1[C@H](CO)[C@H]2Cn3c(cccc3=O)[C@H]2N1CC1CC1 ?
Solution: inactive

Problem: Outcome? CCC(=O)N1CC[C@@H]2[C@@H](CO)N(C)c3ccc(-c4cccc(OC)c4)cc3[C@@H]21
Solution: inactive

Problem: How did this test come out for CCC(=O)N1CCCCN2[C@H](C1)[C@@H](c1ccc(/C=C/c3ccccc3)cc1)[C@@H]2CO ?
Solution: active

Problem: For COc1ccccc1C#Cc1ccc([C@@H]2[C@H](CO)N3CCCCN(C(=O)C4CCCC4)C[C@@H]23)cc1 , what call appears in the results of this test?
Solution: active

Problem: Given COc1ccccc1C#Cc1ccc([C@@H]2[C@H](CO)N3CCCCN(C(=O)C4CC4)C[C@@H]23)cc1 , state the outcome it received in this test.
Solution: inactive

Problem: Lab log entry: O=C(c1cccc(F)c1)N1CC[C@@H]2[C@@H](CO)Nc3ccc(C#Cc4cccc(F)c4)cc3[C@@H]21 — outcome as called in the assay?
Solution: inactive

Problem: GET /call?item= OC[C@@H]1[C@H](c2ccc(C#CC3(O)CCCC3)cc2)[C@H]2CN(Cc3cncnc3)CCCCN12 returns the recorded outcome of this test.
Solution: inactive

Problem: Given O=C(C1CCC1)N1CCCCN2[C@H](CO)[C@H](c3ccc(-c4ccncc4)cc3)[C@@H]2C1 , state the outcome it received in this test.
Solution: inactive

Problem: Identify the outcome logged in this assay for the compound shown: COc1ccc(S(=O)(=O)N2CCCCN3[C@H](C2)[C@H](c2ccc(C#CCC(C)C)cc2)[C@@H]3CO)cc1
Solution: inactive

Problem: Just curious, what result did OC[C@@H]1Nc2ccc(-c3cccc(F)c3)cc2[C@H]2[C@@H]1CCN2Cc1ccncc1 get here?
Solution: inactive

----------
The reader will find reported cytotoxicity (signal decrease) values listed item by item below.
test: NIH3T3 cell viability loss – cherry-pick, single point, cytotoxicity control for T. cruzi proliferation inhibitor project, confirmation (AID 651742); settings: NIH/3T3 viability, CellTiter-Glo ATP luminescence, 90 h; at 8.35 µM; stronger effect = higher value;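 note: 0% = median of neutral control wells and 100% = median of positive control wells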
The whole screen tested about 5,600 compounds, of which about 780 (14%) were called active. Inconclusive results (about 3%) are left out. Only a sample is shown.
Answer in %, number only, no unit symbol.

O=C(CN1CCOCC1)N1CCCCN2[C@@H](CO)[C@H](c3ccc(-c4ccccc4)cc3)[C@@H]2C1: 8.85

Documented cytotoxicity (signal decrease) of N#C[C@@H]1[C@@H](c2ccc(C#Cc3cccc(F)c3)cc2)[C@@H](CO)N1C(=O)C1CCC1 : 29.1

The measured cytotoxicity (signal decrease) associated with C[C@@H]1CCCCO[C@@H](CN(C)C(=O)Nc2ccc(F)cc2)[C@H](C)CN([C@H](C)CO)C(=O)c2cc(NC(=O)Nc3cccc4ccccc34)ccc2O1 reads 1.18

Form: compound = C[C@@H]1CN([C@H](C)CO)S(=O)(=O)c2ccc(C#CCC3CCCC3)cc2O[C@H]1CN(C)C(=O)CC1CC1 ; cytotoxicity (signal decrease) = -5.41

----------
assay: NIH3T3 cell viability loss – cherry-pick, single point, cytotoxicity control for T. cruzi proliferation inhibitor project, confirmation (AID 651742); conditions: NIH/3T3 viability, CellTiter-Glo ATP luminescence, 90 h; at 8.35 µM; stronger effect = higher value;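 note: 0% = median of neutral control wells and 100% = median of positive control wells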
The whole screen tested about 5,600 compounds, of which about 780 (14%) were called active. Not shown: some 3% with an inconclusive outcome. Only a sample is shown.
Listing of recorded cytotoxicity (signal decrease) by entry.
The response must be a number in % with no trailing unit.

Example compounds with recorded cytotoxicity (signal decrease):
C[C@@H]1CCCCO[C@H](CN(C)C(=O)NC2CCCCC2)[C@H](C)CN([C@H](C)CO)C(=O)c2cc(NC(=O)Nc3ccc(F)cc3)ccc2O1: -12.7
C[C@@H]1CN([C@H](C)CO)C(=O)c2cccc(NC(=O)NC3CCCCC3)c2O[C@H]1CN(C)Cc1ccc(C(F)(F)F)cc1: -8.62
O=C(c1cnccn1)N1CC[C@@H]2[C@H](CO)Nc3ccc(-c4cccc(F)c4)cc3[C@@H]21: 32.9
C[C@H]1CN([C@@H](C)CO)C(=O)CCCn2cc(nn2)CO[C@H]1CN(C)C(=O)c1ccccc1: 10.9
Cc1ccc(S(=O)(=O)N2C[C@@H](O)COC[C@@H]3O[C@H](CC(=O)NCc4ccc(Cl)c(Cl)c4)CC[C@H]32)cc1: 3.54

The measured cytotoxicity (signal decrease) associated with CC(=O)N(C)C[C@@H]1[C@@H](c2ccc(-c3ccccc3F)cc2)[C@@H](CO)N1C(C)=O reads 0.445

Sample C[C@H](CO)N1C[C@H](C)[C@H](CN(C)Cc2ccncc2)Oc2cc(-c3ccncc3)ccc2S1(=O)=O ; cytotoxicity (signal decrease) observed: 19.9

----------
test: NIH3T3 cell viability loss – cherry-pick, single point, cytotoxicity control for T. cruzi proliferation inhibitor project, confirmation (AID 651742); settings: NIH/3T3 viability, CellTiter-Glo ATP luminescence, 90 h; at 8.35 µM;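 note: 0% = median of neutral control wells and 100% = median of positive control wells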
In all, about 5,600 compounds went through this assay and about 780 (14%) were called active. Another 3% or so got no clear call; they are omitted.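 How the source made its calls: active means mean signal decrease across replicates above about 35% based on untreated-well scatter, with enough replicates individually passing (limit read from the data); inconclusive means no rule stated though some were filed; inactive means the rest.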 Not all results are given here.
Would you mind answering with one of these outcomes? 1 for active, -1 for inactive

Observe how each entry below is paired with its result.
CCCC#Cc1ccc2c(c1)O[C@H](CN(C)C(=O)CC)[C@@H](C)CN([C@H](C)CO)S2(=O)=O: -1
C[C@@H]1CCCCO[C@H](CN(C)C(=O)Nc2ccc(C(F)(F)F)cc2)[C@H](C)CN([C@H](C)CO)C(=O)c2cc(NC(=O)Nc3ccc(C(F)(F)F)cc3)ccc2O1: -1
O=C(c1cccc(F)c1)N1CCCCN2[C@H](CO)[C@H](c3ccc(-c4ccncc4)cc3)[C@H]2C1: -1
C[C@@H]1CN([C@@H](C)CO)C(=O)c2cc(NC(=O)Nc3cccc4ccccc34)ccc2O[C@H]1CN(C)Cc1ccc(Cl)c(Cl)c1: 1
C[C@H]1CN([C@@H](C)CO)C(=O)c2cccc(NS(=O)(=O)c3cn(C)cn3)c2O[C@@H]1CN(C)CC1CCCCC1: -1

Problem: Per the records of this test, what outcome belongs to C[C@H](CO)N1C[C@H](C)[C@@H](CN(C)C(=O)Nc2ccnc(N3CCOCC3)c2)OCc2ccccc2-c2ccccc2C1=O ?
Solution: -1

Problem: Name the outcome recorded for C[C@@H]1CCCCO[C@@H](CN(C)Cc2ccc(Cl)c(Cl)c2)[C@H](C)CN([C@H](C)CO)C(=O)c2cc(NC(=O)Nc3ccc(F)cc3)ccc2O1 in the assay.
Solution: -1

Problem: Fill in: this test's call for CC(C)NC(=O)N1[C@H](C#N)[C@H](c2ccc(C#CC3CCCCC3)cc2)[C@H]1CO is ___
Solution: -1

Problem: Dear colleague, could you share the recorded outcome for O=C(Cc1ccccc1)N1CC[C@H]2[C@H](CO)Nc3ccc(-c4ccccc4F)cc3[C@H]21 when you have a moment?
Solution: -1

Problem: Hi team, can someone confirm the assay call for Cc1cc(C(=O)Nc2cccc3c2O[C@@H](CN(C)Cc2ccc(C(=O)Nc4ccccc4N)cc2)[C@H](C)CN([C@@H](C)CO)C3=O)n(C)n1 ?
Solution: -1

Problem: How was CN(C)C(=O)c1ccc(-c2ccc([C@@H]3[C@H](CO)N4CCCCN(S(C)(=O)=O)C[C@@H]34)cc2)cc1 classified in this test?
Solution: -1

Problem: What was the test verdict on C[C@H](CO)N1C[C@H](C)[C@@H](CN(C)S(=O)(=O)c2cccc(F)c2)OCc2ccccc2-c2c(n(C)c3ccccc23)C1=O ?
Solution: -1
